Test system: MES-SA
Experiment: relative viability vs DMSO control (72 h) (fraction); higher = more viable cells
Details: 1.111 µM
relative viability: recorded values
Quick one: just the number, no unit, thanks!

COMPOUND | MEASURED_ENDPOINT | RESULT
CC[C@H](Nc1ncnc2[nH]cnc12)c1nc2cccc(F)c2c(=O)n1-c1ccccc1 [Idelalisib] | relative viability | 0.889
Cn1cc(-c2cc3c(N4CCN(c5ncc([C@@](C)(N)c6ccc(F)cc6)cn5)CC4)ncnn3c2)cn1 [Avapritinib] | relative viability | 0.795
CCCS(=O)(=O)Nc1ccc(F)c(C(=O)c2c[nH]c3ncc(-c4ccc(Cl)cc4)cc23)c1F [Vemurafenib] | relative viability | 0.973
Cc1cc(Nc2ncnc3ccc(NC4=NC(C)(C)CO4)cc23)ccc1Oc1ccn2ncnc2c1 [Tucatinib] | relative viability | 0.857

Using known records, supply relative viability for Nc1cc(C(F)(F)F)c(-c2cc(N3CCOCC3)nc(N3CCOCC3)n2)cn1 [Buparlisib]
0.208

Using known records, supply relative viability for Cc1cc(C)c(/C=C2\C(=O)Nc3ccccc32)[nH]1 [Semaxanib]
0.889

Using known records, supply relative viability for COc1cc2nccc(Oc3ccc(NC(=O)Nc4cc(C)on4)c(Cl)c3)c2cc1OC [Tivozanib]
0.977

====

Test system: A204
Assay: relative viability vs DMSO control (72 h) (fraction); higher = more viable cells
Settings: 0.00017 µM
Counter-ions that a name gives are not always drawn.
relative viability: recorded values
Quick one: just the number, no unit, thanks!

Look over these answered cases.
COMPOUND | relative viability
C[C@]1(O)C[C@@H](c2nc(-c3ccc4ccc(-c5ccccc5)nc4c3)c3c(N)nccn32)C1 [Linsitinib] | 1.08
Nc1cc(C(F)(F)F)c(-c2cc(N3CCOCC3)nc(N3CCOCC3)n2)cn1 [Buparlisib] | 1.05
CC(C)N1CCN(Cc2cnc(-c3cc(-c4cccc5[nH]ccc45)cc4[nH]ncc34)o2)CC1 [Nemiralisib] | 0.981

Using known records, supply relative viability for COc1cccc2c1C(=O)c1c(O)c3c(c(O)c1C2=O)C[C@@](O)(C(=O)CO)C[C@@H]3O[C@H]1C[C@H](N)[C@H](O)[C@H](C)O1 [Doxorubicin Hydrochloride]
1.06

====

Tested on: SW872
Assay: relative viability vs DMSO control (72 h) (fraction); higher = more viable cells
Conditions: 0.04115 µM
Criterion: relative viability strictly under 1. Met: met. Not met: not met.

MOLECULE | TARGET_ENTITY | CLASS_ASSIGNMENT
CCc1cc2c(cc1N1CCC(N3CCOCC3)CC1)C(C)(C)c1[nH]c3cc(C#N)ccc3c1C2=O | SW872 | not met
Cc1cnc(Nc2ccc(OCCN3CCCC3)cc2)nc1Nc1cccc(S(=O)(=O)NC(C)(C)C)c1 | SW872 | not met
CC(C)NC(=O)C1CCC(n2c(NC(=O)c3ccc(F)cc3)nc3ccc(CN4CCC(C(C)(C)O)CC4)cc32)CC1 (centres undefined) | SW872 | not met
COc1cc2c(Oc3ccc4[nH]c(C)cc4c3F)ncnc2cc1OCCCN1CCCC1 | SW872 | not met

Please find the next molecule below.
Is 1 strictly greater than the molecule's reported relative viability? molecule: "O=C(Cc1ccc(-c2ccc(OCCN3CCOCC3)cc2)cn1)NCc1ccccc1"
met

====

System: A204
Test: relative viability vs DMSO control (72 h) (fraction); higher = more viable cells
Details: 3.333 µM
Counter-ions that a name gives are not always drawn.
MEASURED_ENDPOINT: relative viability
Quick one: just the number, no unit, thanks!

Look over these answered cases.
COMPOUND | TARGET_ENTITY | relative viability
COc1cc2c(Oc3ccc4[nH]c(C)cc4c3F)ncnc2cc1OCCCN1CCCC1 | A204 | 0.182
CC(C)N1CCN(Cc2cnc(-c3cc(-c4cccc5[nH]ccc45)cc4[nH]ncc34)o2)CC1 | A204 | 0.631
CC(C)NC(=O)C1CCC(n2c(NC(=O)c3ccc(F)cc3)nc3ccc(CN4CCC(C(C)(C)O)CC4)cc32)CC1 (centres undefined) | A204 | 0.727
C[C@@H](c1ccc2nccn2c1)n1nnc2ncc(-c3cnn(C)c3)nc21 | A204 | 0.962
CC[C@H](Nc1ncnc2[nH]cnc12)c1nc2cccc(F)c2c(=O)n1-c1ccccc1 | A204 | 0.835
CCCS(=O)(=O)Nc1ccc(F)c(C(=O)c2c[nH]c3ncc(-c4ccc(Cl)cc4)cc23)c1F | A204 | 1.02

Using known records, supply relative viability for "N#CC[C@H](C1CCCC1)n1cc(-c2ncnc3[nH]ccc23)cn1"
0.789

Using known records, supply relative viability for COc1cccc2c1C(=O)c1c(O)c3c(c(O)c1C2=O)C[C@@](O)(C(=O)CO)C[C@@H]3O[C@H]1C[C@H](N)[C@H](O)[C@H](C)O1 [Doxorubicin Hydrochloride]
0.123

Using known records, supply relative viability for "CCc1cc2c(cc1N1CCC(N3CCOCC3)CC1)C(C)(C)c1[nH]c3cc(C#N)ccc3c1C2=O"
1.14

====

relative viability: recorded values
Tested on: KHOS-NP
Experiment: relative viability vs DMSO control (72 h) (fraction); higher = more viable cells
Conditions: 0.00457 µM
Counter-ions that a name gives are not always drawn.
Quick one: just the number, no unit, thanks!

Look over these answered cases.
MOLECULE | RESULT
COc1cc2nccc(Oc3ccc(NC(=O)Nc4cc(C)on4)c(Cl)c3)c2cc1OC | 1.08
CCc1cc2c(cc1N1CCC(N3CCOCC3)CC1)C(C)(C)c1[nH]c3cc(C#N)ccc3c1C2=O | 1.08
O=C(Nc1cnn2ccc(N3CCC[C@@H]3c3cc(F)ccc3F)nc12)N1CC[C@H](O)C1 | 1.09

Using known records, supply relative viability for "CN1CCN(c2ccc3nc(-c4c(N)c5c(F)cccc5[nH]c4=O)[nH]c3c2)CC1"
1.1

Using known records, supply relative viability for COc1cccc2c1C(=O)c1c(O)c3c(c(O)c1C2=O)C[C@@](O)(C(=O)CO)C[C@@H]3O[C@H]1C[C@H](N)[C@H](O)[C@H](C)O1 [Doxorubicin Hydrochloride]
1.07

Using known records, supply relative viability for "C[C@]1(O)C[C@@H](c2nc(-c3ccc4ccc(-c5ccccc5)nc4c3)c3c(N)nccn32)C1"
1.08

Using known records, supply relative viability for "C=CC(=O)Nc1cccc(Oc2nc(Nc3ccc(N4CCN(C)CC4)cc3)nc3ccsc23)c1"
1.07

====

Tested on: RD
Experiment: relative viability vs DMSO control (72 h) (fraction); higher = more viable cells
Conditions: 0.3704 µM
Structures can show the parent of a compound that is named as a salt.
MEASURED_ENDPOINT: relative viability
Quick one: just the number, no unit, thanks!

Look over these answered cases.
MOLECULE | TARGET_ENTITY | relative viability
C=CC(=O)N1CCC[C@@H](n2nc(-c3ccc(Oc4ccccc4)cc3)c3c(N)ncnc32)C1 [Ibrutinib] | RD | 1.15
C=CC(=O)N1CCC([C@@H]2CCNc3c(C(N)=O)c(-c4ccc(Oc5ccccc5)cc4)nn32)CC1 [Zanubrutinib] | RD | 0.893
C[C@]1(O)C[C@@H](c2nc(-c3ccc4ccc(-c5ccccc5)nc4c3)c3c(N)nccn32)C1 [Linsitinib] | RD | 0.672
CN1CCC(COc2cnc(-c3cccc(Cn4nc(-c5cccc(C#N)c5)ccc4=O)c3)nc2)CC1 [Tepotinib] | RD | 1.14
C=CC(=O)Nc1cccc(Oc2nc(Nc3ccc(N4CCN(C)CC4)cc3)nc3ccsc23)c1 [Olmutinib] | RD | 1.07
COc1cccc2c1C(=O)c1c(O)c3c(c(O)c1C2=O)C[C@@](O)(C(=O)CO)C[C@@H]3O[C@H]1C[C@H](N)[C@H](O)[C@H](C)O1 [Doxorubicin Hydrochloride] | RD | 0.214
CC1(C)CNc2cc(NC(=O)c3cccnc3NCc3ccncc3)ccc21 [Motesanib] | RD | 0.975

Enter measured relative viability, system RD, for the molecule shown: CCN1CCN(Cc2ccc(Nc3ncc(F)c(-c4cc(F)c5nc(C)n(C(C)C)c5c4)n3)nc2)CC1 [Abemaciclib]
1.07

====

System: MES-SA
Assay: relative viability vs DMSO control (72 h) (fraction); higher = more viable cells
Settings: 0.00457 µM
Criterion: relative viability strictly under 0.9. Met: 1. Not met: 0.

COMPOUND_STRUCTURE_STRING | CLASS_ASSIGNMENT
Cc1cc(Nc2ncnc3ccc(NC4=NC(C)(C)CO4)cc23)ccc1Oc1ccn2ncnc2c1 | 0
COc1cc2nccc(Oc3ccc(NC(=O)Nc4cc(C)on4)c(Cl)c3)c2cc1OC | 0

Is 0.9 strictly greater than the molecule's reported relative viability? molecule: "COc1c(OCCCN2CCOCC2)ccc2c1N=C(NC(=O)c1cnc(N)nc1)N1CCN=C21"
1

Is 0.9 strictly greater than the molecule's reported relative viability? molecule: "CCCS(=O)(=O)Nc1ccc(F)c(C(=O)c2c[nH]c3ncc(-c4ccc(Cl)cc4)cc23)c1F"
0

Is 0.9 strictly greater than the molecule's reported relative viability? molecule: "C=CC(=O)Nc1cccc(Oc2nc(Nc3ccc(N4CCN(C)CC4)cc3)nc3ccsc23)c1"
0

Is 0.9 strictly greater than the molecule's reported relative viability? molecule: "Cc1ccc(F)c(NC(=O)Nc2ccc(-c3cccc4[nH]nc(N)c34)cc2)c1"
0

Is 0.9 strictly greater than the molecule's reported relative viability? molecule: "CO[C@H]1C[C@@H]2CC[C@@H](C)[C@@](O)(O2)C(=O)C(=O)N2CCCC[C@H]2C(=O)O[C@H]([C@H](C)C[C@@H]2CC[C@@H](OP(C)(C)=O)[C@H](OC)C2)CC(=O)[C@H](C)/C=C(\C)[C@@H](O)[C@@H](OC)C(=O)[C@H](C)C[C@H](C)/C=C/C=C/C=C/1C"
1

Is 0.9 strictly greater than the molecule's reported relative viability? molecule: "Cc1nc(-c2cn3c(n2)-c2ccc(-c4cnn(C(C)(C)C(N)=O)c4)cc2OCC3)n(C(C)C)n1"
1

Hello, the source for this data is the supplement of paper PMC10883282, in case you need it.
